protocol_description: Pharmacokinetic test in mice
Assay type: in vivo, ICR mice
condition_details: male, ICR, mouse, po, plasma, i.g. (10 mg/kg)
readout_kind: half-life (h)

- molecule: "C#Cc1cnc(C2=CCN(c3nc4c(c(NC5(CO)CCC5)n3)[S+]([O-])CC4)CC2)nc1 (stereo not shown)"
  recorded_number: 4.3

1: [O-][S@+]1CCc2nc(N3CCC=C(c4ccc(Cl)cc4)CC3)nc(NC3(CO)CCC3)c21
2: [O-][S@+]1CCc2nc(N3CC=C(c4ncc(Cl)cn4)CC3)nc(NC3(CO)CCC3)c21
3: [O-][S@+]1CCc2nc(N3CC=C(c4ccc(Cl)cc4)CC3)nc(NC3(CO)CCC3)c21
Please put the entries in order of rising half-life. Please reply with the labels ordered as requested. Many thanks.
1, 2, 3
